Listing of recorded MIC by entry.
# System: Salmonella typhimurium
# Method Description: Antimicrobial activity against Salmonella enterica serovar Typhimurium S21-1 tolC::Kan with GyrA S83F mutation
# Format: functional, Salmonella enterica subsp. enterica serovar Typhimurium
The figure you give is taken to be in µg/mL; do not add the unit.

Example compounds with recorded MIC:
Compound	Test System	Number
CCn1cc(C(=O)O)c(=O)c2cc(F)c(N3CCNCC3)nc21 [ENOXACIN]	Salmonella typhimurium	0.06
CO[C@@]1(NC(=O)Cc2cccs2)C(=O)N2C(C(=O)O)=C(COC(N)=O)CS[C@@H]21 [CEFOXITIN]	Salmonella typhimurium	1
CN1C[C@@H]2C[C@H]1CN2c1cc2c(cc1F)c(=O)c(C(=O)O)cn2C1CC1 [DANOFLOXACIN]	Salmonella typhimurium	0.06

// next entry
Query block: Can you share its MIC? I mean this compound: CCn1cc(C(=O)O)c(=O)c2ccc(C)nc21 [NALIDIXIC ACID]
Result block: 32
